Molecular target: Jak3 (Homo sapiens)
Sequence (P52333 508-1124): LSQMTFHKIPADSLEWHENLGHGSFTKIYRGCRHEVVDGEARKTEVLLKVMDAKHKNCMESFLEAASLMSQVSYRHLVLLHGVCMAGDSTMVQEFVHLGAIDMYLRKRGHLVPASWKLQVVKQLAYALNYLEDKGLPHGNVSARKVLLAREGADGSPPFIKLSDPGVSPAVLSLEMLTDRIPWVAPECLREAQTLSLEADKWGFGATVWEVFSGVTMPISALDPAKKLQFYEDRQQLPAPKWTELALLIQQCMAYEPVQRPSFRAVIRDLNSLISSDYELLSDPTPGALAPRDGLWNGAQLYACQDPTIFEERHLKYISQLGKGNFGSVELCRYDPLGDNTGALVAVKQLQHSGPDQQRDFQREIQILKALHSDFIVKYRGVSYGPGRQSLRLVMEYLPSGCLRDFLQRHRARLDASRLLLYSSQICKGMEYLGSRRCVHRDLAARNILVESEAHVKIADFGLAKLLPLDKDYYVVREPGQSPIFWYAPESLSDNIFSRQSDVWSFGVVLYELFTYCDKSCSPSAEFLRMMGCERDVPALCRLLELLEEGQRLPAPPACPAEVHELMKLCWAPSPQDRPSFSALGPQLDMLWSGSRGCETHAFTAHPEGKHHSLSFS
Reported IC50 by item:
REPORTED_METRIC: IC50

[
  {
    "SUBSTANCE_SMILES": "CC1CCN(c2nc(-n3cnc4ccc(Cl)cc43)nc3c2[nH]c(=O)n3C2CCOCC2)CC1",
    "REPORTED_METRIC": "IC50",
    "MEASUREMENT": "100 to 1000 nM"
  },
  {
    "SUBSTANCE_SMILES": "O=c1[nH]c2c(-c3cccc4cnccc34)nc(-n3cnc4ccc(F)cc43)nc2n1C1CCOCC1",
    "REPORTED_METRIC": "IC50",
    "MEASUREMENT": "100 to 1000 nM"
  },
  {
    "SUBSTANCE_SMILES": "Cc1nc2c(-c3ccncc3)nc(-n3cnc4ccc(Cl)cc43)nc2n1C1CCOCC1",
    "REPORTED_METRIC": "IC50",
    "MEASUREMENT": "< 100 nM"
  },
  {
    "SUBSTANCE_SMILES": "O=c1[nH]c2c(-c3ccncc3)nc(-n3cnc4ccc(OC(F)(F)F)cc43)nc2n1C1CCOCC1",
    "REPORTED_METRIC": "IC50",
    "MEASUREMENT": "100 to 1000 nM"
  },
  {
    "SUBSTANCE_SMILES": "Cc1ncccc1Cn1c(=O)[nH]c2c(N3CC(F)(F)C3)nc(-n3cnc4ccc(C#N)cc43)nc21",
    "REPORTED_METRIC": "IC50",
    "MEASUREMENT": "< 100 nM"
  },
  {
    "SUBSTANCE_SMILES": "CCOC(=O)CCc1nc(-n2cnc3ccc(F)cc32)nc2c1[nH]c(=O)n2[C@@H]1CCOc2c(F)cccc21",
    "REPORTED_METRIC": "IC50",
    "MEASUREMENT": "100 to 1000 nM"
  },
  {
    "SUBSTANCE_SMILES": "O=c1[nH]c2c(N3CCCC3)nc(-n3cnc4ccc(F)cc43)nc2n1C1CCOCC1",
    "REPORTED_METRIC": "IC50",
    "MEASUREMENT": "< 100 nM"
  },
  {
    "SUBSTANCE_SMILES": "CCOC(=O)c1nc(-n2cnc3ccc(F)cc32)nc2c1[nH]c(=O)n2C1CCOCC1",
    "REPORTED_METRIC": "IC50",
    "MEASUREMENT": "100 to 1000 nM"
  },
  {
    "SUBSTANCE_SMILES": "Cn1c(=O)n([C@H]2CC[C@H](O)CC2)c2nc(-n3cnc4ccc(F)cc43)nc(N3CCCCC3)c21",
    "REPORTED_METRIC": "IC50",
    "MEASUREMENT": "< 100 nM"
  }
]
